Tested on: 276233-004-R-J1-PDC KRAS spheroids with HUVEC/MSC, viability;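 note: cells exposed to agents for seven days before viability read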
Assay Info: Anticancer human tumor 276233-004-R-J1-PDC patient-derived colon adenocarcinoma cell line growth inhibition [KRAS2]; active = viability on the fitted dose curve at most 10% of control; inactive = the rest
Condition Info: second compound 10 µM; first compound 10 µM
The reply should name one outcome from active, inactive

# Molecule, Category Label
data = [
    ("CC1(C)CCC(CN2CCN(c3ccc(C(=O)NS(=O)(=O)c4ccc(NCC5CCOCC5)c([N+](=O)[O-])c4)c(Oc4cnc5[nH]ccc5c4)c3)CC2)=C(c2ccc(Cl)cc2)C1 + CNCc1ccccc1-c1csc(C(C)Nc2nc(C)nc3cc(OC)c(OC)cc23)c1", "active"),
    ("COc1cc2nccc(Oc3ccc(NC(=O)C4(C(=O)Nc5ccc(F)cc5)CC4)cc3)c2cc1OC + COc1cc2nc(C)nc(NC(C)c3cc(N)cc(C(F)(F)F)c3)c2cc1OC1CCOC1", "inactive"),
    ("COc1cc2nccc(Oc3ccc(NC(=O)C4(C(=O)Nc5ccc(F)cc5)CC4)cc3)c2cc1OC + CC1OCC2(CCN(c3cnc(Sc4ccnc(N)c4Cl)c(N)n3)CC2)C1N", "inactive"),
    ("CC1(C)CCC(CN2CCN(c3ccc(C(=O)NS(=O)(=O)c4ccc(NCC5CCOCC5)c([N+](=O)[O-])c4)c(Oc4cnc5[nH]ccc5c4)c3)CC2)=C(c2ccc(Cl)cc2)C1 + COc1cc2nc(C)nc(NC(C)c3cc(N)cc(C(F)(F)F)c3)c2cc1OC1CCOC1", "inactive"),
    ("O=C(c1cc(Cc2n[nH]c(=O)c3ccccc23)ccc1F)N1CCN(C(=O)C2CC2)CC1 + CC1OCC2(CCN(c3cnc(Sc4ccnc(N)c4Cl)c(N)n3)CC2)C1N", "inactive"),
]

Query block: # outcome recorded in this test, key = Cn1nccc1Nc1nccc(-c2cc3c(s2)C(C)(C)N(CCN2CCOCC2)C3=O)n1 + CNCc1ccccc1-c1csc(C(C)Nc2nc(C)nc3cc(OC)c(OC)cc23)c1
Result block: active

Query block: # outcome recorded in this test, key = CCNC(=O)CC1N=C(c2ccc(Cl)cc2)c2cc(OC)ccc2-n2c(C)nnc21 (configuration not stated) + COc1cc2nc(C)nc(NC(C)c3cc(N)cc(C(F)(F)F)c3)c2cc1OC1CCOC1
Result block: active

Query block: # outcome recorded in this test, key = CC(C)NCC(C(=O)N1CCN(c2ncnc3c2C(C)CC3O)CC1)c1ccc(Cl)cc1 (configuration not stated) + CC1OCC2(CCN(c3cnc(Sc4ccnc(N)c4Cl)c(N)n3)CC2)C1N
Result block: inactive

Query block: # outcome recorded in this test, key = CC1OCC2(CCN(c3cnc(Sc4ccnc(N)c4Cl)c(N)n3)CC2)C1N (configuration not stated) + C=CC(=O)N1CCN(c2nc(=O)n(-c3c(C)ccnc3C(C)C)c3nc(-c4c(O)cccc4F)c(F)cc23)C(C)C1
Result block: inactive

Query block: # outcome recorded in this test, key = CCNC(=O)CC1N=C(c2ccc(Cl)cc2)c2cc(OC)ccc2-n2c(C)nnc21 (configuration not stated) + CNCc1ccccc1-c1csc(C(C)Nc2nc(C)nc3cc(OC)c(OC)cc23)c1
Result block: active

Query block: # outcome recorded in this test, key = COc1cc(Nc2ncc3c(n2)-c2ccc(Cl)cc2C(c2c(F)cccc2OC)=NC3)ccc1C(=O)O + CNCc1ccccc1-c1csc(C(C)Nc2nc(C)nc3cc(OC)c(OC)cc23)c1
Result block: active

Query block: # outcome recorded in this test, key = CC(C)NCC(C(=O)N1CCN(c2ncnc3c2C(C)CC3O)CC1)c1ccc(Cl)cc1 (configuration not stated) + CNCc1ccccc1-c1csc(C(C)Nc2nc(C)nc3cc(OC)c(OC)cc23)c1
Result block: active

Query block: # outcome recorded in this test, key = O=C(c1cc(Cc2n[nH]c(=O)c3ccccc23)ccc1F)N1CCN(C(=O)C2CC2)CC1 + CNCc1ccccc1-c1csc(C(C)Nc2nc(C)nc3cc(OC)c(OC)cc23)c1
Result block: active

Query block: # outcome recorded in this test, key = COc1cc2nccc(Oc3ccc(NC(=O)C4(C(=O)Nc5ccc(F)cc5)CC4)cc3)c2cc1OC + C=CC(=O)N1CCN(c2nc(=O)n(-c3c(C)ccnc3C(C)C)c3nc(-c4c(O)cccc4F)c(F)cc23)C(C)C1
Result block: inactive
